target: OCTN2 (organic cation/carnitine transporter 2) (Mus musculus); experiment: TP_TRANSPORTER: inhibition of Carnitine uptake (Carnitine: 0.01 uM, Pyrilamine: 500 uM) in OCTN2-expressing HEK293 cells; assay type: functional, cell-based; parameters: scale not given: the % may be the effect or the level left; conditions: human, HEK293 cells that express OCTN2, probe carnitine; read-out: Activity

chemical_structure | activity at 500 µM (%)
COc1ccc(CN(CCN(C)C)c2ccccn2)cc1 | 36.3

* * *

Target: OCTN2 (organic cation/carnitine transporter 2) (Mus musculus, UniProt Q9Z0E8)
Sequence (Q9Z0E8 whole entry): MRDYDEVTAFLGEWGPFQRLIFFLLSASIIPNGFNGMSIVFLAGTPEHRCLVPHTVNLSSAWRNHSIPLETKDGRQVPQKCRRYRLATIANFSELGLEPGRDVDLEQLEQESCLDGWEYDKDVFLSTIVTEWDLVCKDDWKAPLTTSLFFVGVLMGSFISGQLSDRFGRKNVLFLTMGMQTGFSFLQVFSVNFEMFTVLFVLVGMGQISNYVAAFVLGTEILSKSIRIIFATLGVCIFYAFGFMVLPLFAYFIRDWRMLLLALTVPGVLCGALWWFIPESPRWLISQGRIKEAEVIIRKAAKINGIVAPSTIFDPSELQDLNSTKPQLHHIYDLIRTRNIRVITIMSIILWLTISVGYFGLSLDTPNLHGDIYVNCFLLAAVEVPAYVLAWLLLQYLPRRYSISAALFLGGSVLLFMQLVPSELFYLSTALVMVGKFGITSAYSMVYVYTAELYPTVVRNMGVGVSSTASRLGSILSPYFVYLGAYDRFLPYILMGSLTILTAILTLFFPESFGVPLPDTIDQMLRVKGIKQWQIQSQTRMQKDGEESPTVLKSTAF
Assay: TP_TRANSPORTER: inhibition of Carnitine uptake (Carnitine: 0.01 uM, Procainamide: 500 uM) in OCTN2-expressing HEK293 cells
Assay type: functional, cell-based
Set-up: scale not given: the % may be the effect or the level left
Conditions: human, HEK293 cells that express OCTN2, probe carnitine; read-out: Activity
property_name: activity at 500 µM (%)

molecule | unit_abbrev | measured
CCN(CC)CCNC(=O)c1ccc(N)cc1 [PROCAINAMIDE] | % | 81.3

Where these numbers come from: ChEMBL document CHEMBL2074332
